# assay: cmc-value (critical micellar concentration) of detergents, own measurements of the inventors
# Assay type: physicochemical
# experimental parameters: reflects solubility of detergent in water
# Description: The inventors of the submitted application have, namely, recognized that the low yield and the lacking reproducibility in the known methods is to be assigned to the second detergent. […] Further, it has to be taken care that the second detergent, in its final concentration, is above the critical micellar concentration. […] Above the cmc-value, the concentration of solved detergent-monomers is constant. […]
reported metric: cmc-value (µM)

1) CCCCCCCCCCCCOP(=O)([O-])OCC[N+](C)(C)C
500
2) CCCCCCCCCCCCCOP(=O)([O-])OCC[N+](C)(C)C
150

(A) CCCCCCCCCCCCCCCCOP(=O)([O-])OCC[N+](C)(C)C
(B) CCCCCCCCCCCCCCOP(=O)([O-])OCC[N+](C)(C)C
Smaller cmc-value value? Options are A and B Return value: the label identifying the chosen record.
A
(A: 5 µM, B: 50 µM)
